- Test system: SF-295
- ASSAY PROTOCOL: NCI tumour cell line growth inhibition, 48 h
The source made the active and inactive calls. Rule as the data show it: active = GI50 up to about 1.1 µM and inactive = higher.
Lab note: assign the record to one of yes (active), no (inactive)

INPUT: Which result was noted for this compound in the test: `O=C(c1ccccn1)c1nc(-c2ccc(Cl)c(Cl)c2)nc2ccc(Cl)cc12`
OUTPUT: no

INPUT: Check the results log: what was the call for N#CC(c1ccccc1)N(CCOCCOCCN(C(=O)c1cccc2ccccc12)C(C#N)c1ccccc1)C(=O)c1cccc2ccccc12 (configuration not stated) ?
OUTPUT: no

INPUT: Could you check what this test reported for `COc1cc(CCN)c(OC)c(OC)c1` ?
OUTPUT: no

INPUT: Any idea what this test logged for COCOC1CCCC[C@@]1(OCCOCCO[C@@]1(c2ccccc2)CCCC[C@H]1OCOC)c1ccccc1 (some centres not stated) ?
OUTPUT: no

INPUT: Call for entry S=c1sc2c(s1)SC(c1ccccc1)CS2 (configuration not stated) :
OUTPUT: no

---

- Test system: UACC-257
- ASSAY PROTOCOL: NCI tumour cell line growth inhibition, 48 h
Activity calls are given as the source filed them. No stated cut-off is given here; in the data, active = GI50 up to about 1.1 µM and inactive = higher.
EXPERIMENTAL ENDPOINT: GI50

COMPOUND	TARGET SYSTEM	GI50
COC(=O)Cc1c(-c2c(CC(=O)OC)c3ccccc3n2C2OC(COC3OC(COC(C)=O)C(OC(C)=O)C(OC(C)=O)C3OC(C)=O)C(O)C(O)C2O)[nH]c2ccccc12 (stereo not drawn)	UACC-257	> 100 µM (inactive)
O=S(=O)(C1=CC(S(=O)(=O)c2ccccc2)CN(Cc2ccccc2)C1c1cccc2ccccc12)c1ccccc1 (stereo not drawn)	UACC-257	> 69 µM (inactive)

Give one value of GI50 per listed compound.
1. CO/N=[N+](\[O-])NC(C)C
2. COc1nc(/C=N/NC(N)=S)nc(OC)n1
3. c1ccc2c(CNCCCCCCCCNCc3cccc4ccccc34)cccc2c1
4. CN(/N=C/c1ccccn1)C1=NCCN1
5. O=C(O)C1C2C=CC(O2)C1C(=O)NCc1cccnc1 (stereo not drawn)
6. CCOC(=O)C=C1CCN(C(=O)c2ccccc2)CC1

OUTPUT:
["> 100 µM (inactive)", "> 100 µM (inactive)", "1.87 µM (inactive)", "> 100 µM (inactive)", "72.6 µM (inactive)", "> 100 µM (inactive)"]

---

- System: IGROV-1
- ASSAY PROTOCOL: NCI tumour cell line growth inhibition, 48 h
Calls of active or inactive are those of the source. Cut-off read from the data, not from the text of the source: active = GI50 up to about 1.1 µM and inactive = higher.
Please answer using one outcome listed in y = active, n = inactive

Below, 8 compounds whose answers are already recorded.
                                   compound  assigned_category
0  CC(C)(C)c1ccc(/C=N/NC(=O)CSCC(=O)N/N=C/c2ccc(C(C)(C)C)cc2)cc1                  y
1  CN(C)CCn1c(=O)c2ccc(NCCN3CCNCC3)c3c(=O)c4ccccc4n(c1=O)c23                  y
2  CCCCCC(=O)Cc1cc(OC)cc2c1C(=O)Oc1cc(O)c(C(=O)O)c(CC(=O)CCCCC)c1O2                  n
3  O=C1CC(c2ccc(Cl)cc2)C2(C(=O)NC(=O)NC2=O)C(c2ccc(Cl)cc2)C1 (configuration not stated)                  n
4  COc1ccc2c(c1)/C(=C\c1c(C)nc3sc(C)cn13)C(=O)N2                  y
5      O=Nn1c2ccccc2c2cc([N+](=O)[O-])ccc21                  n
6                Oc1nc2ccccc2c2oc3ccccc3c12                  n
7                        ONc1ncnc2[nH]cnc12                  n

INPUT: Hi, do you know how COC(=O)C(C)NP(=O)(N1CC1)N1CC1 (configuration not stated) came out in this test?
OUTPUT: n

INPUT: Could you kindly confirm the outcome this assay logged for NC(=O)c1cccc(OCC(O)CO)c1 (configuration not stated) ?
OUTPUT: n

INPUT: Hi team, can someone confirm the assay call for `Cc1ccc(C)c(NC(=O)CCC(=O)CC(=O)C(C)(C)C)c1` ?
OUTPUT: n

INPUT: So what was the verdict on `O=C1CN(c2ccccc2)Cc2nc(Cl)ccc2N1` in this test?
OUTPUT: n

---

- System: 786-0
- ASSAY PROTOCOL: NCI tumour cell line growth inhibition, 48 h
Calls of active or inactive are those of the source. Cut-off read from the data, not from the text of the source: active = GI50 up to about 1.1 µM and inactive = higher.
Entry note: the call must match one of active, inactive

Known results for compounds:
COMPOUND	ASSIGNED CATEGORY
c1ccc2c(c1)Nc1cccc3c1c-2nc1cc2ccccc2cc13	inactive
N=C(N)c1ccc(OCCCCCOc2ccc(C(=N)N)cc2)cc1	inactive
S=C(N/N=C(/c1ccccc1)c1ccccn1)N(Cc1ccccn1)Cc1ccccn1	active
COc1ccc(-c2cc(-c3ccccc3)nc3c2CC(=O)Nc2ccccc2-3)cc1OC	inactive
CCOC(=O)[C@H]1O[C@@H]1C(=O)NC(CC(C)C)C(=O)NCCC(C)C (stereo partly specified)	inactive
Cc1ccnc2c1C(=O)C1=C(OC(C)(C)CC1O)C2=O (stereo unspecified)	inactive

INPUT: Per the records of this test, what outcome belongs to COc1ccc(NC(=O)CC(=O)N2N=C(C)C(/N=N\c3ccc(S(=O)(=O)c4ccc(/N=N/C5C(=O)N(C(=O)CC(=O)Nc6ccc(OC)cc6)N=C5C)cc4)cc3)C2=O)cc1 (stereo unspecified) ?
OUTPUT: inactive

INPUT: For `COc1ccc(/C=N/Nc2nc(=S)[nH]c3[nH]ncc23)cc1` , what call appears in the results of this test?
OUTPUT: inactive

INPUT: Fill in: this test's call for `O=c1c(S(=O)(=O)Oc2ccccc2)coc2cc(F)ccc12` is ___
OUTPUT: inactive

INPUT: Please share the test call associated with `N#CC(C#N)=Cn1c(=S)[nH]c2ccc([N+](=O)[O-])cc21` .
OUTPUT: inactive

INPUT: Short answer needed: outcome of this test for CCCCCCCCCCOCCOCCOCCOCCCCC(O)CCCCCCCC1=C[C@H](C)OC1=O (stereo partly specified) ?
OUTPUT: inactive

---

- Test system: DMS-114
- ASSAY PROTOCOL: NCI tumour cell line growth inhibition, 48 h
Activity calls are given as the source filed them. Rule as the data show it: active = GI50 up to about 1.1 µM and inactive = higher.
Pick one: Yes (active), No (inactive)

See these solved cases before continuing.
In [3]: df
Out[3]:
                                   compound  assigned_category
0              Nc1nnc2c(-c3ccccc3)n[nH]c2n1                 No
1  O=C(CC1=Nc2nnc(CCCCCCCc3nnc4n3C(=O)C(CC(=O)c3ccccc3)=N4)n2C1=O)c1ccccc1                 No
2  O=C(c1ccccn1)c1nc(-c2ccc(Cl)c(Cl)c2)nc2ccc(Cl)cc12                 No
3        CNS(=O)(=O)NNS(=O)(=O)c1ccc(Br)cc1                 No

INPUT: Any idea what this test logged for `O=C(NCC(=O)N1CCOC1=O)OCc1ccccc1` ?
OUTPUT: No

INPUT: Field: outcome | Entry: CCCC[S+]([O-])CC(CO)NC(=O)/C=C/c1c(C)[nH]c(=O)[nH]c1=O (stereo not given)
OUTPUT: No

INPUT: What did the test return for `O=c1c(-c2ccccc2)c(O)nc2[nH]c3ccccc3n12` ?
OUTPUT: No

INPUT: Record request — test call for COc1ccc(/C=c2/sc3n(c2=O)NC(c2ccc(Cl)cc2)NN=3)cc1 (stereo not given)
OUTPUT: No

INPUT: Each compound tested received a call. Report the one for C=C=C(CC)C(C(=O)OC)N(CC)CC (stereo not given) .
OUTPUT: No

INPUT: Check the results log: what was the call for `CCOC(=O)CCn1ncc(Cl)c(Cl)c1=O` ?
OUTPUT: No

INPUT: // outcome(item) with item = `CCCCCC(=O)Cc1cc(OC)cc2c1C(=O)Oc1cc(O)c(C(=O)O)c(CC(=O)CCCCC)c1O2`
OUTPUT: No

INPUT: What did the test return for COC(=O)N/N=C(\C)C(CN1CCCCC1)C(C1=C(O)c2ccccc2OC1)c1ccccc1 (stereo not given) ?
OUTPUT: No

INPUT: What did this assay record as the result for `ONc1ncnc2[nH]cnc12` ?
OUTPUT: No

---

- System: SN12C
- ASSAY PROTOCOL: NCI tumour cell line growth inhibition, 48 h
Activity calls are given as the source filed them. Cut-off read from the data, not from the text of the source: active = GI50 up to about 1.1 µM and inactive = higher.
Please state which outcome applies, choosing from Yes = active, No = inactive

Reference set, count: 3
                                   compound  assigned_category
0                  Nc1ccc2cc3ccc(N)cc3nc2c1                Yes
1  Cc1cc(N(CCC#N)CCC#N)ccc1C(/N=N/c1ccccc1)=N\NC(=O)c1ccccc1                 No
2  CC(CN1CC(=O)NC(=O)C1)N1CC(=O)NC(=O)C1 (configuration not stated) [RAZOXANE]                 No

Shift focus to the following entry.
INPUT: Called result for `N#CC(C#N)=Cn1c(=S)[nH]c2ccc([N+](=O)[O-])cc21`
OUTPUT: No
